Where do the numbers come from? From patent US20260176289A1.

molecular target: UniProt P01116; test: SOS-catalyzed nucleotide exchange assay (Procedure A, TR-FRET), KRAS-WT; format: biochemical; conditions: nucleotide exchange, read-out: KRAS WT GNE IC50
Sequence (P01116 with tags, fused parts or gaps isoform P01116-2): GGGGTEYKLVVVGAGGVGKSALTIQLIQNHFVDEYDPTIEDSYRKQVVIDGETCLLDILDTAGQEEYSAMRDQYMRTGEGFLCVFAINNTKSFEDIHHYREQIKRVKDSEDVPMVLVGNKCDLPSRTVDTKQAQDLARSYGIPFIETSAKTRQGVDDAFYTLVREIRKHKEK
Hi! Just check whether IC50 is below 60 nM. Below gives yes, equal or above gives no.

Some solved cases for reference:
CN(C)C[C@@]1(COc2nc(N3CCOC[C@@](C)(O)C3)c3c(n2)sc2c(-c4c(C5CC5)c(Cl)cc5[nH]ncc45)nccc23)CC1(F)F : yes
CO[C@]12CC[C@H]1CN(C[C@@]1(COc3nc(N4CCOC[C@@](C)(O)C4)c4c(n3)sc3c(-c5c(C6(F)CC6)c(Cl)cc6[nH]ncc56)nccc34)CC1(F)F)C2 : no
C[C@H]1CN(C[C@@]2(COc3nc(N4CCOC[C@@](C)(O)C4)c4c(n3)sc3c(-c5c(C6(F)CC6)c(Cl)cc6[nH]ncc56)nccc34)CC2(F)F)[C@@H](C)CO1 : no
Cc1cc2[nH]ncc2c(-c2nncc3c2sc2nc(OC[C@@]45CCCN4C[C@H](F)C5)nc(N4CCOC[C@@](C)(O)C4)c23)c1C(F)(F)F : no
Cc1cc2[nH]ncc2c(-c2nccc3c4c(N5CCOC[C@@](C)(O)C5)nc(OC[C@@]56CCCN5C[C@H](F)C6)nc4n(C)c23)c1C(F)F (single isomer, unassigned) : no

stdin: Determine whether this compound shows IC50 lower than 60 nM (ties excluded): Cc1cc2[nH]ncc2c(-c2nccc3c2sc2nc(OC[C@@]45CCCN4C[C@H](F)C5)nc(N4CCOC(CO)C4)c23)c1C(F)(F)F (some centres unmarked)
stdout: no

stdin: Determine whether this compound shows IC50 lower than 60 nM (ties excluded): C[C@@]1(O)COCCN(c2nc(OC[C@]3(CN4C[C@@H]5CCCO[C@H]5C4)CC3(F)F)nc3sc4c(-c5c(C6(F)CC6)c(Cl)cc6[nH]ncc56)nccc4c23)C1
stdout: yes

stdin: Determine whether this compound shows IC50 lower than 60 nM (ties excluded): CCC1CCc2cc3[nH]ncc3c(-c3nccc4c3sc3nc(OC[C@@]56CCCN5C[C@H](F)C6)nc(N5CCOC[C@@](C)(O)C5)c34)c21 (some centres unmarked)
stdout: yes

stdin: Determine whether this compound shows IC50 lower than 60 nM (ties excluded): CCn1c2nc(OC[C@@]34CCCN3C[C@H](F)C4)nc(N3CCOC[C@@](C)(O)C3)c2c2ccnc(-c3c(C(F)(F)F)c(C)cc4[nH]ncc34)c21
stdout: no

stdin: Determine whether this compound shows IC50 lower than 60 nM (ties excluded): CN(C)C[C@@]1(COc2nc(N3CCOC[C@@](C)(O)C3)c3c(n2)sc2c(-c4c(C5CC5)c(Cl)cc5[nH]ncc45)nncc23)CC1(F)F
stdout: yes

stdin: Determine whether this compound shows IC50 lower than 60 nM (ties excluded): C[C@@]1(O)COCCN(c2nc(OC[C@@]34CCCN3C[C@H](F)C4)nc3sc4c(-c5c(C(F)(F)F)c(C(F)F)cc6[nH]ncc56)nccc4c23)C1
stdout: no
